test system: HCT-15 colon; test: NCI tumour cell line growth inhibition, 48 h
// values below are reported TGI

Previously resolved entries follow.
O=C1NC(=NCCc2cccs2)S/C1=C\c1ccc2ncccc2c1; > 25 µM
Cc1ccc(S(=O)(=O)O/N=C2\CCC\C2=C/c2ccccc2)cc1; 73.8 µM
COc1cc(/C=C/C(=O)c2cc(OC)c(OC)c(OC)c2)ccc1Oc1nc2c(c(=O)n(C)c(=O)n2C)n1C; > 100 µM
OC(Cc1cccnc1)(c1ccccc1)c1ccccc1; > 100 µM
O=c1[nH]c2cc(C(F)(F)F)ccc2nc1CBr; 33.3 µM
Cc1nc(-c2nc(C)c(C(=O)/C=C/c3ccc(N(C)C)cc3)s2)sc1C(=O)/C=C/c1ccc(N(C)C)cc1; > 100 µM
CN(C)CCNC(=O)c1ccc(Cl)c2c(Nc3ccc(S(=O)(=O)N=C(N)N)cc3)c3ccccc3nc12; 18.6 µM
C=C(C(=O)OC)[C@H]1CC/C(C)=C/CC[C@@](C)(O)C=CC[C@@]2(C)O[C@@H]2C1; 73.6 µM

Consider now this further molecule.
Query: Requested field: TGI. Item: O=S(=O)(O)c1ccc(N=Nc2ccc(N=Nc3c(O)ccc4cc(S(=O)(=O)O)ccc34)cc2)cc1
Reply: > 100 µM

====

system: SF-295 CNS; test: NCI tumour cell line growth inhibition, 48 h; in the data active means GI50 below about 0.43 µM; inactive means the rest
Would you mind answering with one of these outcomes? yes (1) for active, no (0) for inactive

// below: answered compounds
COc1ccc2c(CCC(c3ccccc3)c3ccccc3)c3[n+](cc2c1OC)CCc1cc2c(cc1-3)OCO2; no (0)
CC(C)(C)c1[nH]nc2c1C(c1cc3ccccc3[nH]c1=O)Nc1cc(C(=O)Nc3ccc(Cl)cc3)ccc1N2 (centres undefined); no (0)

Query: # lookup: test call for Nc1ccc2c(c1)Cc1cc(Cl)c(Cl)cc1-2
Reply: no (0)

Query: Record lookup: outcome of this test for CC(C)=CC(=O)OCC(=O)O[C@@H]1C[C@]2(C(C)C)O[C@@]1(C)[C@@H]1CC[C@@H](C)[C@H]1[C@@H]2OC(=O)/C=C/c1ccccc1 ?
Reply: no (0)

====

system: ACHN renal; test: NCI tumour cell line growth inhibition, 48 h
Observation type: TGI

Query: Record lookup: for ACHN renal, what TGI belongs to C=C(C)[C@@H]1CC[C@]2(COC(C)=O)CC[C@]3(C)[C@H](CC[C@@H]4[C@@]5(C)CC[C@H](OC(C)=O)C(C)(C)[C@@H]5CC[C@]43C)[C@@H]12 ?
Reply: > 50 µM

Query: Lab note: need TGI for O=C(OC(CNc1c(C(=O)c2ccccc2)c(=O)n(Cc2ccccc2)c(=O)n1Cc1ccccc1)CN1CCOCC1)c1ccccc1 (centres undefined) on ACHN renal, anyone have it?
Reply: > 100 µM

Query: What is its TGI for ACHN renal? Entry: CC1(C)OCC(C2CCC3(C)C4=CCC5C(C)(C)C(O)CCC5(C)C4CCC23C)CC(O)C1O (centres undefined)
Reply: 45.9 µM

Query: Please tell me: TGI of CC(C)(C)c1[nH]nc2c1C(c1cc3ccccc3[nH]c1=O)Nc1cc(C(=O)Nc3ccc(Cl)cc3)ccc1N2 (centres undefined) , system ACHN renal?
Reply: > 64.7 µM

Query: Form field - read-out: TGI; system: ACHN renal; submitted item: CC1CC2=C(C(=O)O1)C(c1ccccc1)Nc1ccccc1N2 (centres undefined)
Reply: > 100 µM
